Quick reference for log10 IC50 among some compounds
Assayed Target: human IRAK-4 (Homo sapiens (Human))
Measurement Description: Measurement of human IRAK-4 inhibitory activity (TR-FRET)
Format: biochemical
Test Context: 1 nM IRAK-4, 0.5 µM peptide substrate, 10 µM ATP, 23° C., 30 minutes
Field: value | Transform: log10 | Quantity: IC50 | Unit: nM

Example entries and their recorded answers appear below.
[
  {
    "Compound": "Cc1ncc(-c2ccc3ncc4cc3c2OCCCOC(=O)[C@@H]2C[C@H](CCN2)N4)cn1 [a-02-18]",
    "Assayed Target": "human IRAK-4 (Homo sapiens (Human))",
    "Readout Name": "log10 IC50",
    "Numeric Result": 0.22
  },
  {
    "Compound": "CN1CC[C@H]2C[C@H]1C(=O)NCC(C)(C)COc1c(-c3cncnc3)ccc3ncc(nc13)N2 [a-01-40]",
    "Assayed Target": "human IRAK-4 (Homo sapiens (Human))",
    "Readout Name": "log10 IC50",
    "Numeric Result": 1.17
  },
  {
    "Compound": "O=C1OCCCOc2c(-c3cnc(CO)nc3)ccc3ncc(cc23)N[C@H]2CCN[C@H]1C2 [a-02-12]",
    "Assayed Target": "human IRAK-4 (Homo sapiens (Human))",
    "Readout Name": "log10 IC50",
    "Numeric Result": -0.03
  }
]

Please look up its log10 IC50: CN1CC[C@H]2C[C@H]1C(=O)NCCCOc1c(-c3cncnc3)ccc3ncc(nc13)N2 [a-01-09]
0.11

Now give it for Cc1ncc(-c2ccc3ncc4cc3c2OCCCNC(=O)[C@@H]2C[C@H](CCN2C)N4)cn1 [a-02-21] too.
0.34

Now give it for CCCOCc1ncc(-c2ccc3ncc4nc3c2OCCC(CC)CNC(=O)[C@@H]2C[C@H](CCN2C)N4)cn1 (some centres unmarked) [a-01-37] too.
0.66

Now give it for CN1CC[C@H]2C[C@H]1C(=O)NCCCOc1c(-c3cnc(COC4CCC4)nc3)ccc3ncc(nc13)N2 [a-01-13] too.
0.47

Now give it for CCN1CC[C@H]2C[C@H]1C(=O)NCCCOc1c(-c3cnc(CO)s3)ccc3ncc(nc13)N2 [a-01-16] too.
0.10

* * *

Assayed Target: human IRAK-4 (Homo sapiens (Human), UniProt Q9NWZ3)
Sequence (Q9NWZ3 whole entry): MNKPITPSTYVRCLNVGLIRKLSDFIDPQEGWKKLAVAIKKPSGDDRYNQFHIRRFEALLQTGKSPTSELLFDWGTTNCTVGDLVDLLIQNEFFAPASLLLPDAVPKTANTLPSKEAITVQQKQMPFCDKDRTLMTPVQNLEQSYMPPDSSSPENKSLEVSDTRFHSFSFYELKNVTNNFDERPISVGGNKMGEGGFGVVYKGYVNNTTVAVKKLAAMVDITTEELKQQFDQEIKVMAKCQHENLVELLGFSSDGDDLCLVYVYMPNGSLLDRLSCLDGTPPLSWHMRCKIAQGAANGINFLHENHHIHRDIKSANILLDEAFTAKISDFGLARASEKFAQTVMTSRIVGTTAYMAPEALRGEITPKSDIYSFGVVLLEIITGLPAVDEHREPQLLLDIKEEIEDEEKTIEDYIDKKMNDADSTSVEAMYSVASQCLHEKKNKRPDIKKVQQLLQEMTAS
Measurement Description: Measurement of human IRAK-4 inhibitory activity (TR-FRET)
Format: biochemical
Test Context: 1 nM IRAK-4, 0.5 µM peptide substrate, 10 µM ATP, 23° C., 30 minutes
Readout Name: IC50 (nM)
Please state the figure in nM; there is no need to write the unit.

Query the reported IC50 for human IRAK-4 (Homo sapiens (Human), UniProt Q9NWZ3); item: CN1CCCOc2c(-c3cncnc3)ccc3ncc(nc23)N[C@H]2CCN(C)[C@@H](C2)C1=O [a-01-34]
4.19

* * *

Assayed Target: human IRAK-4 (Homo sapiens (Human))
Measurement Description: Measurement of human IRAK-4 inhibitory activity (TR-FRET)
Format: biochemical
Test Context: 1 nM IRAK-4, 0.5 µM peptide substrate, 10 µM ATP, 23° C., 30 minutes
Quick reference for IC50 among some compounds
Please state the figure in nM; there is no need to write the unit.

Example entries and their recorded answers appear below.
[
  {
    "Compound": "Cc1ncc(-c2ccc3ncc4cc3c2OCC(F)CNC(=O)[C@@H]2C[C@H](CCN2C)N4)cn1 (some centres unmarked)",
    "IC50, nM": 0.81
  },
  {
    "Compound": "CCCOCc1ncc(-c2ccc3ncc4cc3c2OCC(F)CNC(=O)[C@@H]2C[C@H](CC(C)N2C)N4)cn1 (some centres unmarked)",
    "IC50, nM": 2.33
  }
]

Please look up its IC50: CC1CNC(=O)[C@@H]2C[C@H](CCN2C)Nc2cnc3ccc(-c4cncnc4)c(c3n2)OC1 (some centres unmarked)
8.86

Now give it for CN1CC[C@H]2C[C@H]1C(=O)NCCCOc1c(-c3cnc(CO)nc3)ccc3ncc(nc13)N2 too.
1.59

Now give it for CCCOCc1ncc(-c2ccc3ncc4nc3c2OCC(F)CNC(=O)[C@@H]2C[C@H](CCN2C)N4)cn1 (some centres unmarked) [a-01-05] too.
1.37

Now give it for CCCOCc1ncc(-c2ccc3ncc4cc3c2OCCCOC(=O)[C@@H]2C[C@H](CCN2)N4)cn1 too.
2.47

Now give it for CN1CC[C@H]2C[C@H]1C(=O)NCC(F)(F)COc1c(-c3cnc(CO)s3)ccc3ncc(nc13)N2 too.
0.89

Now give it for COCc1ncc(-c2ccc3ncc4nc3c2OCCCNC(=O)[C@@H]2C[C@H](CCN2C)N4)cn1 too.
3.28

* * *

System: human acute monocytic leukemia cell strain THP-1
Measurement Description: LPS-stimulated TNFα production inhibition test using THP-1 cells
Assay type: cell-based
Test Context: LPS 2.5 ng/mL, 4 hours, TNFα by HTRF
Readout Name: IC50
Please answer using a numeric value trailed by its unit.

Example entries and their recorded answers appear below.
[
  {
    "Molecule": "Cc1ncc(-c2ccc3ncc4nc3c2OCC(F)CNC(=O)[C@@H]2C[C@H](CCN2C)N4)cn1 (stereo partly shown) [a-01-19]",
    "IC50": "0.113 µM"
  },
  {
    "Molecule": "Cc1ncc(-c2ccc3ncc4nc3c2OCC(F)CNC(=O)[C@@H]2C[C@H](CCN2C)N4)cn1 (stereo partly shown) [a-01-41]",
    "IC50": "0.293 µM"
  }
]

Query the reported IC50 for human acute monocytic leukemia cell strain THP-1; item: CCCOCc1ncc(-c2ccc3ncc4nc3c2OCC(F)CNC(=O)[C@@H]2C[C@H](CCN2C)N4)cn1 (stereo partly shown) [a-01-26]
0.142 µM

Now give it for CCCOCc1ncc(-c2ccc3ncc4nc3c2OCC(F)CNC(=O)[C@@H]2C[C@H](CCN2C)N4)cn1 (stereo partly shown) [a-01-05] too.
0.048 µM

* * *

Tested on: human acute monocytic leukemia cell strain THP-1
Measurement Description: LPS-stimulated TNFα production inhibition test using THP-1 cells
Type: cell-based
Test Context: Homo sapiens, THP-1, 4 h, LPS 2.5 ng/mL, TNFα by HTRF
Protocol: By the THP-1 assay, influence of a test compound on the TNFα production induced by LPS stimulation can be evaluated. […] The fluorescence intensity ratio for the wavelengths of 620 and 665 nm (620 nm/665 nm) was measured with a microplate reader, and the amount of TNFα in the supernatant was calculated by using a calibration curve. […]
Readout Name: IC50 (µM)
Please state the figure in µM; there is no need to write the unit.

Please look up its IC50: CN1CC[C@H]2C[C@H]1C(=O)NCCCOc1c(-c3cncnc3)ccc3ncc(nc13)N2
0.064

Now give it for CCCOCc1ncc(-c2ccc3ncc4nc3c2OCCCNC(=O)[C@@H]2C[C@H](CCN2CC)N4)cn1 too.
0.178

Now give it for Cc1ncc(-c2ccc3ncc4nc3c2OCC2(CC2)COC(=O)[C@@H]2C[C@H](CCN2C)N4)cn1 too.
0.17

Now give it for CCCOCc1ncc(-c2ccc3ncc4nc3c2OCC2(CC2)CNC(=O)[C@@H]2C[C@H](CCN2C)N4)cn1 too.
0.048

Now give it for CCCOCc1ncc(-c2ccc3ncc4cc3c2OCC(F)CNC(=O)[C@@H]2C[C@H](CC(C)N2C)N4)cn1 (some centres unmarked) too.
0.012

Now give it for O=C1OCCCOc2c(-c3cnc(CO)nc3)ccc3ncc(cc23)N[C@H]2CCN[C@H]1C2 too.
0.047

Now give it for Cc1ncc(-c2ccc3ncc4nc3c2OCC(F)(F)CNC(=O)[C@@H]2C[C@H](CCN2C)N4)cn1 too.
0.149

Now give it for Cc1ncc(-c2ccc3ncc4cc3c2OCCCOC(=O)[C@@H]2C[C@H](CCN2C)N4)cn1 too.
0.117

Now give it for CC1CNC(=O)[C@@H]2C[C@H](CCN2C)Nc2cnc3ccc(-c4cncnc4)c(c3n2)OC1 (some centres unmarked) too.
0.182

Now give it for COCc1ncc(-c2ccc3ncc4nc3c2OCCCNC(=O)[C@@H]2C[C@H](CCN2C)N4)cn1 too.
0.227

* * *

Assayed Target: UniProt:Q9NWZ3
Measurement Description: Measurement of human IRAK-4 inhibitory activity (TR-FRET)
Format: biochemical
Test Context: 1 nM IRAK-4, 0.5 µM peptide substrate, 10 µM ATP, 23° C., 30 minutes
Experimental: For the measurement of the activity of the human IRAK-4 (Invitrogen, Cat. PV3362), phosphorylation of the IRAK-4 peptide substrate (biotin-KKKKRFSFKKSFKC) by the enzyme in the presence of 10 µM ATP (Sigma-Aldrich, Cat. A7699) was measured by the TR-FRET method. […] Fluorescence intensity was measured at wavelengths of 665 nm and 620 nm with a microplate reader, and the enzymatic activity was calculated as the ratio of fluorescence intensities at 665 nm and 620 nm (665 nm/620 nm). […]
Quick reference for IC50 among some compounds
Please answer using a numeric value trailed by its unit.

Example entries and their recorded answers appear below.
[
  {
    "Compound": "CCCOCc1ncc(-c2ccc3ncc4nc3c2OCCCCCNC(=O)[C@@H]2C[C@H](CCN2C)N4)cn1 [a-01-27]",
    "IC50": "4.25 nM"
  },
  {
    "Compound": "CN1CC[C@H]2C[C@H]1C(=O)NCC1(CCC1)COc1c(-c3cnc(CO)s3)ccc3ncc(nc13)N2 [a-01-44]",
    "IC50": "2.36 nM"
  },
  {
    "Compound": "Cc1ncc(-c2ccc3ncc4cc3c2OCC(F)CNC(=O)[C@@H]2C[C@H](CC(C)N2C)N4)cn1 (stereo partly shown) [a-02-09]",
    "IC50": "0.86 nM"
  }
]

# next compound below
Please look up its IC50: CCCOCc1ncc(-c2ccc3ncc4nc3c2OCCC(F)CNC(=O)[C@@H]2C[C@H](CCN2C)N4)cn1 (stereo partly shown) [a-01-31]
3.42 nM
